# assay explanation: label from the status in PepcDB records
quantity: protein production

sequence_string=MAQPSTTYKFELNLTDLDRNVYESVKQTIARHPSETEERMAVRLLAYALWYNENLSFGRGLSDVDEPALWEKSLDDRVLHWIEVGQPDADRLTWCSRRTERTSLLAYGSLRVWEGKVVSAVKNLKNLSIAAVPQEVLETLATDMPRSIKWDVMISEGTVFVTDDRGQHEVQLQWLLGERG result="not failed"
sequence_string=MNDIYFDDNRHNWNDRARLHEEAGYGIDKLLSDRDYITPEVEQDKDLIGDLTNKDVLHLQCHLGTDTISLARLGARRVLGLDLSDESLRRARNLAKKAGVSIDFIEGNVYDAREVIVGDFDLIYTSLGVLCWLPDITAWGRVVASLLKSGGKFIIRDDHPMFMTIGEDVRDGFKIEQPYFEQSQPMTWEDEGSYIETDASFEKIKNTRNHQWNHALSEIIMALINAGLQIDLVSESQHAAWNIWPHLMEKCSDGSYRLKKHSEVLPLQFLISAHKPEA result=failed
sequence_string=MNMLVINGTPRKHGRTRIAASYIAALYHTDLIDLSEFVLPVFNGEAEQSELLKVQELKQRVTKADAIVLLSPEYHSGMSGALKNALDFLSSEQFKYKPVALLAVAGGGKGGINALNNMRTVMRGVYANVIPKQLVLDPVHIDVENATVAENIKESIKELVEELSMFAKAGNPGV result="not failed"
sequence_string=MRQSCLMTEQLQDIKTLIEQGDTERAIHALTNFIRNDAHVNDEPYYLLGNAYRKMGDWQQALNNYLEAIERNPESPAVSARNMIMNILNFYNKDMYNQ result=failed
sequence_string=MGMLGLDLLKEVPGLLEEIKALPLRLDEERFRFWLQQDYPFVEALYRYQVGLLLEAPQAHRAPLVQALMATVEELDWLLLQGASPSAPVHPVRAGYIALLEEMGRLPYAYRVVFFYFLNGLFLEAWAHHVPEEGPWAELSQHWFAPEFQAVLYDLEVLARGLWEDLDPEVVRTYLRRILEAEKATWSLLL result="not failed"
sequence_string=MDTSNLDTPMRMAAFDRVRGLNEVHDHLTATELQPGFLFRGERIPLVNPQRGIFKPHQMRFLLSIKTVFPKPGGKVWYDDQRDIQRQIFYGDEAIDYAFMGKNPDAADNRWLKEAYENQIPVVYFLGIAPGRYQALLPTFISGWDGQALKARITFGPNPEKLAPPSDSAERRYALRTVKQRLHQATFREAVISAYDGRCAFSGLPEPLLLDAAHIIADKDERLGHPVVTNGIPLSKIHHAAFDAHLIGIDPDFRLHVSDRLLGQNDGPMLEALKQLNGRNIRLPGRAKDHPDRDRLAMRFERYKSVA result=failed
sequence_string=MAQKMTGALVFDERTDRYDIRFDLNSYYGGLHCGECFDVFVRGKWKPTRIEYGDNWYLVGIRAEDLNGLRVRI result=failed
sequence_string=MNIILNVFLIFVSAILTKLFALFAQHTKLIDIPNERNLHSRPTVRGGGLVFIGLSLFCWFFICNSQFFLTLDQFIFSIAIIFIATISFIDDFYNLSVTIRFFFQCLIAFLIVIFILPSQLDFGLFLFENTYLIAFFLFFAVIWAINHFNFMDGLDGFCASQAIFLLAAYALFFNSAGSLIYQDFCLILISSLAGFLIFNFPPAKIFMGDVGSASLGLITFFIAIIAQKNYQIPILYWFILNSLFLFDSTVTLIRRIIKHEKWFSPHKKHAYQRLKQLGINSRFILLGQAIINGSLFLSVMFMHFQFFNLKNLIIIQLCYLSAIYFFIEKKYPME result=failed
sequence_string=MSSFSLAVRDSSTMLRRNLLHARRYPSLTLNLLLTPVMLLLLFVYIFGDTMSGGAGRSAYIAYIVPGILLMTIGSTTIGTAVSVSTDMNEGIIARFRTMAIHRSSVLFGHVAGSVLQAIMSVVLVGAVGVAMGFRSTDATVLEWLAAFGLLALFALAFTWIAVGMGLGSPNAEAASNNAMPLILLPLISSAFVPLDSMPGWFQPIAEYQPFTPAIETLRGLLLGTEIGNNWWIALAWCLGLTVLGHRWSKAQFNRDPK result=failed
sequence_string=MHILSMIKSQLKLLFNNRLAVFAIILAPILLTFLVSYSSSSNSKTNVYFADQDNTEASRQLVNMLKNNHDLNLISSSESEIKNKVDDDNITVGVLINKGFGYKLQNNKALDITLIEDYDSVDGEKLSDIILSTENTLQKVNLDSKSISRVLSSNESSISNKIIKKINNGSGVKLLYKNLKSSQNVEDKNAQNLIGFLLMFLWFIVIQGFRTLIEEKENNTFNRIKGTPTNYSKYLLSKIIANYIFGMIIIAIILIVGKYGLKSKIINNVGPEIAILSIYLFSIVGLVMIFVPFVKKHQTFTIIGAAIMVLTGLLGGSFFSMDELQLPKAIEIISKFMPETWGIKSLKEVVFNNLSLGSQSQTILVLGIAGIVGLLISTIIVKIIDRTEKNF result=failed
sequence_string=EKAEDCWELQISPELLAHGRQKILDLLNEGSARDLRSLQRIGPKKAQLIVGWRELHGPFSQVEDLERVEGITGKQMESFLKANILGLAAGQ result="not failed"
sequence_string=MSEELMISPAAPAAPAAGSALTSAQFRKLAEVPPEIEWFANIDSLQTRRAYQNDLRGFMAFAGIVSPEDFRLITRSHVLAWRKRLEEEQLGGATIRRKLAALSSLFEYLCEANAVTHNPVKGVKRPPVESWQGKTPALGDVQARALLEAPNAKTLKGKRDRAILSALLYHGIRREELARLKVKDYNQSRRGVPHLRIKGKGGKMRFIPTHPGTLTLIEEYLEAAGHGHDPDAPLFRPVKNNVHGHTLTALTPDSIYFEVVLKYLRKLGIFGENMGPHVMRATAATNALDNGADIAKVQEWLGHANIATTRIYDHRKTRPEDSPTFKVSY result=failed
sequence_string=MQFKAEARRNKLMGLWVAEVLGKSGDEANAYAAEVVKADFEEAGHEDVMRKVLGDLDGKRPEAEVRAKYEGLMAVAKAQLMDEL result="not failed"
